src = patent US20240301062A1

- System tested: T1, human claudin 6 (CLDN6) (human, UniProt P56747 1-220)
- T1 construct: also called human CLDN6; hCLDN6
- T1 sequence: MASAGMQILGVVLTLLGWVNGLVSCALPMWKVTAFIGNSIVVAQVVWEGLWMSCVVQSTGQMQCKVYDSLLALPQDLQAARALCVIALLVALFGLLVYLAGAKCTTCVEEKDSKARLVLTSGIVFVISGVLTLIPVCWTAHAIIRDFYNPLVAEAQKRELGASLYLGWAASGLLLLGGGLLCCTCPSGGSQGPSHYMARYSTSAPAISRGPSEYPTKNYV
- Assay name: FACS, HEK293T/human CLDN6 cells
For each of the binders below, state its Emax ratio to BG87P.
Write the numeric value and follow it with the unit.

# binder BG87P-Bz6 (antibody, V domains shown) VH: QIQLVQSGAEVKKPGASVKVSCKASGYSFTDYHINWVRQAPGQRLEWMGWIYPGSGYTKYNEKFKVRVTLTVDTSASTAYMELSSLRSEDTAVYFCARSGIYHYVSSYYFDHWGKGTTVTVSS VL: DIQMTQSPSTLSASVGDRVTITCKASQDVGTAVAWYQQKPGKAPKLLIYWASTRHTGVPSRFSGSGSGTEFTLTISSVQPDDFATYFCQQYSSYTFGGGTKVEIK ; its Emax ratio to BG87P = 0.75 ratio

# binder BG87P-Bz7 (antibody, V domains shown) VH: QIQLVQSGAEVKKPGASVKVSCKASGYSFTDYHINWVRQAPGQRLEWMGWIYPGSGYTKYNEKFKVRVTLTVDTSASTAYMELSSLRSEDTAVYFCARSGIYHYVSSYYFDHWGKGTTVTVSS VL: DIQMTQSPSTLSASVGDRVTITCKASQDVGTAVAWYQQKPGKSPKLLIYWASTRHTGVPSRFSGSGSGTEFTLTISSLQPDDFATYFCQQYSSYTFGGGTKVEIK ; its Emax ratio to BG87P = 0.81 ratio

# binder BG87P-m6 (antibody, V domains shown, PTM removal variant of BG87P-Bz0; constant regions not restated (parent: human IgG1/kappa)) VH: QIQLVQSGAEVKKPGASVKVSCKASGYSFTDYHINWVRQAPGQRLEWMGWIYPGSGYTKYNEKFKVRVTLTVDTSASTAYMELSSLRSEDTAVYFCARSGIYHYVSSYYFQHWGKGTTVTVSS VL: DIQMTQSPSTLSASVGDRVTITCKASQDVGTAVAWYQQKPGKSPKLLIYWASTRHTGVPSRFSGSGSGTEFTLTISSVQPDDFATYFCQQYSSYTFGGGTKVEIK ; its Emax ratio to BG87P = 0.62 ratio

# binder BG87P-25 (antibody, V domains shown) VH: QIQLVQSGAEVKKPGASVKVSCKASGYSFTDYHINWVRQAPGQRLEWMGWIYPGSGYTKYNEKFKGRVTLTRDTSASTAYMELSSLRSEDTAVYYCARSGIYHYVSSYYFDHWGKGTTVTVSS VL: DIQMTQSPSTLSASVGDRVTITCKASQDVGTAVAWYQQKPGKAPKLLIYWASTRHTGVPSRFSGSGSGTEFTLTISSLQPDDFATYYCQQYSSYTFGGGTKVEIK ; its Emax ratio to BG87P = 0.74 ratio

# binder chimeric BG87P antibody (chBG87P) (antibody, V domains shown) VH: QIQLQQSGPELVKPGASVKISCKASGYSFTDYHINWVKQRPGQGLEWIGWIYPGSGYTKYNEKFKVKATLTVDTSSSTAYMHLTSLTSEDSAVYFCARSGIYHYVSSYYFDHWGQGTTLTVSS VL: DIVMTQSHTFMSTSVGDRVSITCKASQDVGTAVAWYQQKPGQSPKLLIYWASTRHTGVPDRFTGSGSGTDFTLTISNVQSEDLADYFCQQYSSYTFGGGTKLEIK ; its Emax ratio to BG87P = 1 ratio

# binder BG87P-m1 (antibody, V domains shown, PTM removal variant of chBG87P; constant regions not restated (parent: human IgG1/kappa)) VH: QIQLQQSGPELVKPGASVKISCKASGYSFTDYHINWVKQRPGQGLEWIGWIYPGSGYTKYNEKFKVKATLTVDTSSSTAYMHLTSLTSEDSAVYFCARSGIYHYVSSYYFEHWGQGTTLTVSS VL: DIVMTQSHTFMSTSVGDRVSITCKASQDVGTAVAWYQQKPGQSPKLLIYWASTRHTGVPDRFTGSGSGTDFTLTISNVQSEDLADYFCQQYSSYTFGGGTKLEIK ; its Emax ratio to BG87P = 1.08 ratio
